Target: PPAR-γ (Homo sapiens, UniProt P37231)
Construct: host or cells: CV-1
Experiment: cell-based PPAR transactivation (luciferase) assay, PPAR-γ
Details: 24 h; compounds 10 µM; relative to maximum activation with pioglitazone (10 µM); PPAR-Luc in CV-1 cells; read-out: % max PPAR-γ
Sequence (P37231 whole entry, species assumed): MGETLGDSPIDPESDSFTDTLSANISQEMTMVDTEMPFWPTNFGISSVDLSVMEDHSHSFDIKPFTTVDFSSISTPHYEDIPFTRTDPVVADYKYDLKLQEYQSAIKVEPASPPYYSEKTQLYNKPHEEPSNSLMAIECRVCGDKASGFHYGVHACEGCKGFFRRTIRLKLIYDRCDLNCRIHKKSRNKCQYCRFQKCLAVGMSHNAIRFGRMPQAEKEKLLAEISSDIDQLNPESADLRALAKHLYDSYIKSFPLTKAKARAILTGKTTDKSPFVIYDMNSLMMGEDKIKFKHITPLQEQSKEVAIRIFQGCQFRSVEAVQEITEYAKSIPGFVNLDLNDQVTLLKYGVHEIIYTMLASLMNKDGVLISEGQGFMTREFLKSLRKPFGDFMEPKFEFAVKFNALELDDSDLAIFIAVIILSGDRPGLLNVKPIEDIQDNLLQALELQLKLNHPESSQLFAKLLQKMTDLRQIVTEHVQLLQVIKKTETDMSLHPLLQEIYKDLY
Measured activation at 10 µM, listed per entry for reference.
measured quantity: activation at 10 µM

> print(dat)
                                   molecule    measured.quantity  value.observed
1  O=C(COc1ccc2c(c1)c(Cc1ccccc1)cn2Cc1ccccc1C(=O)O)Nc1ccc(Cl)cc1Cl [Compound 18]  activation at 10 µM           93.2%
2  O=C(O)Cc1cn(Cc2ccccc2)c2ccc(OCC(=O)Nc3ccc(Cl)cc3Cl)cc12 [Compound 7]  activation at 10 µM           31.2%
3  CC(C)=CCc1cn(Cc2ccccc2C(=O)O)c2ccc(OCC(=O)Nc3ccc(Cl)cc3Cl)cc12 [Compound 20]  activation at 10 µM            5.1%
4  O=C(COc1ccc2c(Cc3ccccc3)cn(Cc3ccccc3C(=O)O)c2c1)Nc1ccc(Cl)cc1Cl [Compound 19]  activation at 10 µM             19%
5  O=C(COc1ccc2ccn(Cc3ccc(C(=O)O)cc3)c2c1)Nc1ccc(Cl)cc1Cl [Compound 17]  activation at 10 µM          -0.84%
6  O=C(O)Cc1c[nH]c2ccc(OCC(=O)Nc3ccc(Cl)cc3Cl)cc12 [Compound 5]  activation at 10 µM            5.6%

###

Target: PPAR-α (Homo sapiens, UniProt Q07869)
Construct: host or cells: CV-1
Sequence (Q07869 whole entry, species assumed): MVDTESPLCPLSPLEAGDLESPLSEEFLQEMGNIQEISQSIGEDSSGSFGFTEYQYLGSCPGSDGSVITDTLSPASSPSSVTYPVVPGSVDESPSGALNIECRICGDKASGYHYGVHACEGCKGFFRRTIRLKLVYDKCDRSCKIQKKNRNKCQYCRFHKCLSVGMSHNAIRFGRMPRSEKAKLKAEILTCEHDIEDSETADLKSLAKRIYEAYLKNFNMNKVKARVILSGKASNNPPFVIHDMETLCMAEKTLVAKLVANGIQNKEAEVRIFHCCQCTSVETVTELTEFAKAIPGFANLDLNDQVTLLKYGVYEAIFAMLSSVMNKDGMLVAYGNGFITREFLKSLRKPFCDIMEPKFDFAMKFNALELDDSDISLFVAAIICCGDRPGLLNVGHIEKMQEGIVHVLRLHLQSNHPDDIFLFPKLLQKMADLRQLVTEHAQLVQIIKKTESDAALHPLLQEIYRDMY
Experiment: cell-based PPAR transactivation (luciferase) assay, PPAR-α
Conditions: 24 h; compounds 10 µM; relative to maximum activation with GW7647 (10 µM); PPAR-Luc in CV-1 cells; read-out: % max PPAR-α
Protocol: The PPAR activities of the synthesized dichloroanilide-linked indole analogs were assessed using a standard cell-based transactivation assay in CV-1 cells. […] Transient transfection and luciferase assay was carried out. […] The luciferase activity in the cell lysates was measured using a luciferase assay system (Promega Corp., Madison, WI, USA), and the β-galactosidase activity was determined by measuring the absorbance at 410 nm using an ELISA plate reader. […]
measured quantity: activation at 10 µM (%)

> print(dat)
                               smiles.entry  value.observed
1  O=C(O)Cc1c[nH]c2ccc(OCC(=O)Nc3ccc(Cl)cc3Cl)cc12           -38.1
2  CC(C)=CCc1cn(Cc2ccccc2C(=O)O)c2ccc(OCC(=O)Nc3ccc(Cl)cc3Cl)cc12           -5.93
3  O=C(COc1ccc2c(Cc3ccccc3)cn(Cc3ccccc3C(=O)O)c2c1)Nc1ccc(Cl)cc1Cl            7.25
4  O=C(O)Cc1cn(Cc2ccccc2)c2ccc(OCC(=O)Nc3ccc(Cl)cc3Cl)cc12            21.4

###

Target: PPAR-γ (Homo sapiens, UniProt P37231)
Construct: purchased Invitrogen / Thermo Fisher Scientific (assay service)
Experiment: TR-FRET LanthaScreen PPAR coactivator recruit assay, PPAR-γ (TRAP220/DRIP2 peptide)
Format: biochemical
Details: TR-FRET coactivator recruit assay; read-out: EC50 to PPAR-γ
Sequence (P37231 238-503 limits assumed): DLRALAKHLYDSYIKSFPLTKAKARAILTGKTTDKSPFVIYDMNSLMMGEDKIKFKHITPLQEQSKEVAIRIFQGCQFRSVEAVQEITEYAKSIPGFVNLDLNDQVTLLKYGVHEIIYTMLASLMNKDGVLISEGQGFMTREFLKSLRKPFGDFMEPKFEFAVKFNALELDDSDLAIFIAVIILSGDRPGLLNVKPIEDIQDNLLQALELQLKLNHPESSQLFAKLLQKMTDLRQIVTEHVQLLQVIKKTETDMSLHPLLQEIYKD
pEC50: −log10 of the molar value.
measured quantity: pEC50

> print(dat)
                               smiles.entry  value.observed
1  O=C(COc1ccc2ccn(Cc3cccc(C(=O)O)c3)c2c1)Nc1ccc(Cl)cc1Cl            7.49
